- Target Or System: Polymerase acidic protein (Influenza A virus (A/Puerto Rico/8/1934(H1N1)), UniProt P03433)
pIC50: −log10 of the molar value.
Each entry below lists one item and its recorded pIC50 value.

Molecule: COCON1C(=O)/C(=C/c2ccccc2F)N(Cc2ccccc2)[C@@H](CC(C)C)C1=O
Target Or System: Polymerase acidic protein (Influenza A virus (A/Puerto Rico/8/1934(H1N1)), UniProt P03433)
pIC50: < 3.70
//
Molecule: COCON1C(=O)C(Cc2ccccc2)=N/C(=C\C(C)C)C1=O
Target Or System: Polymerase acidic protein (Influenza A virus (A/Puerto Rico/8/1934(H1N1)), UniProt P03433)
pIC50: < 3.70
//
Molecule: COCON1C(=O)[C@H]([C@H](O)C(C)C)N(Cc2ccccc2)[C@@H](CC(C)C)C1=O
Target Or System: Polymerase acidic protein (Influenza A virus (A/Puerto Rico/8/1934(H1N1)), UniProt P03433)
pIC50: < 3.70
//
Molecule: COCON1C(=O)/C(=C\C(C)C)N(Cc2ccccc2)[C@@H](CC(C)C)C1=O
Target Or System: Polymerase acidic protein (Influenza A virus (A/Puerto Rico/8/1934(H1N1)), UniProt P03433)
pIC50: < 3.70
//
Molecule: COCON1C(=O)/C(=C\C(C)C)N(Cc2ccccc2)[C@@H](Cc2ccccc2)C1=O
Target Or System: Polymerase acidic protein (Influenza A virus (A/Puerto Rico/8/1934(H1N1)), UniProt P03433)
pIC50: < 3.70
//
Molecule: COCON1C(=O)C(CC(C)C)=N/C(=C\c2cccc(F)c2)C1=O
Target Or System: Polymerase acidic protein (Influenza A virus (A/Puerto Rico/8/1934(H1N1)), UniProt P03433)
pIC50: < 3.70
//
Molecule: COCON1C(=O)C(CC(C)C)=N/C(=C\c2ccccc2F)C1=O
Target Or System: Polymerase acidic protein (Influenza A virus (A/Puerto Rico/8/1934(H1N1)), UniProt P03433)
pIC50: < 3.70
//
Molecule: COCON1C(=O)C(Cc2ccccc2)=N/C(=C\c2ccc(F)cc2)C1=O
Target Or System: Polymerase acidic protein (Influenza A virus (A/Puerto Rico/8/1934(H1N1)), UniProt P03433)
pIC50: < 3.70
//
Molecule: CC(C)/C=C1\N=C(CC(C)C)C(=O)N(O)C1=O
Target Or System: Polymerase acidic protein (Influenza A virus (A/Puerto Rico/8/1934(H1N1)), UniProt P03433)
pIC50: 5.29
//
Molecule: COCON1C(=O)[C@H]([C@@H](O)C(C)C)N(Cc2ccccc2)[C@@H](Cc2ccccc2)C1=O
Target Or System: Polymerase acidic protein (Influenza A virus (A/Puerto Rico/8/1934(H1N1)), UniProt P03433)
pIC50: < 3.70
//
Molecule: O=C1C(Cc2ccccc2)NC(Cc2ccc(F)cc2)C(=O)N1O (stereo not drawn)
Target Or System: Polymerase acidic protein (Influenza A virus (A/Puerto Rico/8/1934(H1N1)), UniProt P03433)
pIC50: 4.07
//
Molecule: COCON1C(=O)C(Cc2ccccc2)=N/C(=C\c2ccc(OC)cc2)C1=O
Target Or System: Polymerase acidic protein (Influenza A virus (A/Puerto Rico/8/1934(H1N1)), UniProt P03433)
pIC50: < 3.70
//
Molecule: COCON1C(=O)C(CC(C)C)=N/C(=C\c2ccccc2)C1=O
Target Or System: Polymerase acidic protein (Influenza A virus (A/Puerto Rico/8/1934(H1N1)), UniProt P03433)
pIC50: < 3.70
//
Molecule: CC(C)CC1=N/C(=C\c2ccc(F)cc2)C(=O)NC1=O
Target Or System: Polymerase acidic protein (Influenza A virus (A/Puerto Rico/8/1934(H1N1)), UniProt P03433)
pIC50: < 3.70
//
Molecule: COCON1C(=O)C(CC(C)C)=N/C(=C\C(C)C)C1=O
Target Or System: Polymerase acidic protein (Influenza A virus (A/Puerto Rico/8/1934(H1N1)), UniProt P03433)
pIC50: < 3.70
//
Molecule: COCON1C(=O)C(CC(C)C)=N/C(=C\c2ccc(OC)cc2)C1=O
Target Or System: Polymerase acidic protein (Influenza A virus (A/Puerto Rico/8/1934(H1N1)), UniProt P03433)
pIC50: < 3.70
//
Molecule: COCON1C(=O)[C@H]([C@H](O)C(C)C)N(Cc2ccccc2)[C@@H](Cc2ccccc2)C1=O
Target Or System: Polymerase acidic protein (Influenza A virus (A/Puerto Rico/8/1934(H1N1)), UniProt P03433)
pIC50: < 3.70
//
Molecule: COCON1C(=O)C(CC(C)C)=N/C(=C\c2ccc(F)cc2)C1=O
Target Or System: Polymerase acidic protein (Influenza A virus (A/Puerto Rico/8/1934(H1N1)), UniProt P03433)
pIC50: < 3.70
